Reference for the values: patent US11993576B2

Molecular target: human Kv1.3 (Homo sapiens, UniProt P22001)
Sequence (P22001 whole entry): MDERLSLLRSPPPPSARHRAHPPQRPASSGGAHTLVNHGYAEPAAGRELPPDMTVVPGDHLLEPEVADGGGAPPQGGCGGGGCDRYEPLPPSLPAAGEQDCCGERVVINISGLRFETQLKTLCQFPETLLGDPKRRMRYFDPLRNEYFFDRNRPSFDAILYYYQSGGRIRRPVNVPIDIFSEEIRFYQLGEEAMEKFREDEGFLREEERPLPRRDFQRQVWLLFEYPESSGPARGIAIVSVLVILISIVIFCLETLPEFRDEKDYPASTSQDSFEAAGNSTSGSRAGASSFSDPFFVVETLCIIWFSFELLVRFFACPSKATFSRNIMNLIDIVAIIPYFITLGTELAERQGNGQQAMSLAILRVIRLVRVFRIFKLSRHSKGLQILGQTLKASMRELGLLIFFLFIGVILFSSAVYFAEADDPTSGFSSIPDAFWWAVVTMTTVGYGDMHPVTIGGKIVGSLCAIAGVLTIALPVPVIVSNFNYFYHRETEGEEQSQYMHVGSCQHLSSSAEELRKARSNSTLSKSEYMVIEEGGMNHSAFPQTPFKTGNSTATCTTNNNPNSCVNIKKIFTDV
Test: IonWorks automated patch clamp assay of inhibitory activity against Kv1.3
Type: cell-based
Details: automated patch clamp method; CHO-K1 cells stably expressing human Kv1.3
pIC50: −log10 of the molar value.
property.name: pIC50

INSERT INTO assay_data (structure_as_smiles, tested_on, observed_value) VALUES
  ('CCCS(=O)(=O)N(Cc1cscn1)c1ccc(N2CCN(C(=O)OCC)CC2)c(C#N)c1', 'human Kv1.3 (Homo sapiens, UniProt P22001)', 6.19),
  ('CCOC(=O)N1CCN(c2ccc(N(Cc3ccc(F)c(OC)c3)S(=O)(=O)c3ccc(F)cc3)cc2C#N)CC1', 'human Kv1.3 (Homo sapiens, UniProt P22001)', 6.97),
  ('CCCS(=O)(=O)N(Cc1ccc(F)cc1)c1ccc(OC2CCN(C(C)=O)CC2)c(C#N)c1', 'human Kv1.3 (Homo sapiens, UniProt P22001)', 6.54),
  ('CCCS(=O)(=O)N(Cc1ccc(OC)cc1)c1ccc(N2CCN(S(=O)(=O)N(C)C)CC2)c(C#N)c1', 'human Kv1.3 (Homo sapiens, UniProt P22001)', 6.65),
  ('N#Cc1cc(N(Cc2ccccc2)S(=O)(=O)c2ccccc2)ccc1OC1CCN(C=O)CC1', 'human Kv1.3 (Homo sapiens, UniProt P22001)', 6.48),
  ('CCOC(=O)N1CCN(c2ccc(N(Cc3ccccc3)S(=O)(=O)c3ccccc3)cc2C#N)CC1', 'human Kv1.3 (Homo sapiens, UniProt P22001)', 6.58),
  ('CCOC(=O)NC1CCN(c2ccc(N(Cc3ccccc3)S(=O)(=O)c3ccccc3)cc2C#N)CC1', 'human Kv1.3 (Homo sapiens, UniProt P22001)', 6.89),
  ('CCCS(=O)(=O)N(Cc1ccc(F)cc1)c1ccc(SC2CCN(C=O)CC2)c(C#N)c1', 'human Kv1.3 (Homo sapiens, UniProt P22001)', 6.60),
  ('CCCS(=O)(=O)N(Cc1ccccc1F)c1ccc(N2CCN(C(=O)OCC)CC2)c(C#N)c1', 'human Kv1.3 (Homo sapiens, UniProt P22001)', 6.49),
  ('CCCS(=O)(=O)N(Cc1ccc(Cl)cc1)c1ccc(N2CCN(S(=O)(=O)N(C)C)CC2)c(C#N)c1', 'human Kv1.3 (Homo sapiens, UniProt P22001)', 7.02),
  ('CC(C)CCS(=O)(=O)N(Cc1ccc(F)cc1)c1ccc(N2CCN(C(=O)N(C)C)CC2)c(C#N)c1', 'human Kv1.3 (Homo sapiens, UniProt P22001)', 6.81),
  ('CCCS(=O)(=O)N(Cc1ccccc1)c1ccc(N2CCN(C(=O)OCC)CC2=O)c(C#N)c1', 'human Kv1.3 (Homo sapiens, UniProt P22001)', 7.04),
  ('CCCS(=O)(=O)N(Cc1ccc(F)cc1)c1ccc(N2CCC(O)CC2)c(C#N)c1', 'human Kv1.3 (Homo sapiens, UniProt P22001)', 6.89),
  ('CCCS(=O)(=O)N(Cc1ccc(F)cc1OC)c1ccc(N2CCN(C(=O)OCC)CC2)c(C#N)c1', 'human Kv1.3 (Homo sapiens, UniProt P22001)', 6.54),
  ('CN(C)S(=O)(=O)N1CCN(c2ccc(N(Cc3ccc(F)cc3F)S(=O)(=O)CC3CC3)cc2C#N)CC1', 'human Kv1.3 (Homo sapiens, UniProt P22001)', 6.91);
